Assay: chemical genetic growth profiling, strain panel (AID 1159580);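 note: tested at 20 µM; growth read once vehicle control cultures reached saturation at 30 °C; 1 = growth at the plate median or of vehicle wells; lower values mean less growth of the strain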
Conditions: S. cerevisiae deletion strains, growth OD, locus YLL026W, active compounds read low
About 2,000 (36%) of roughly 5,500 compounds were called active. About 18% were inconclusive and are not listed. The list shows a part of the results.
The following compounds are listed with their measured normalized growth values.

>  <Compound>
COc1cc(O)c(C(=O)/C=C/c2ccc(O)c(OC)c2)c(OC)c1

>  <normalized growth>
0.972

$$$$
>  <Compound>
COc1cc2c(cc1OC)[C@@H]1C(=O)c3ccc(O)c(CC=C(C)C)c3O[C@@H]1CO2

>  <normalized growth>
1.03

$$$$
>  <Compound>
COc1cc(O)c(C(=O)/C=C/c2ccccc2)c(OC)c1

>  <normalized growth>
0.937

$$$$
>  <Compound>
CC(C)OC(=O)C(C)(C)Oc1ccc(C(=O)c2ccc(Cl)cc2)cc1

>  <normalized growth>
0.969

$$$$
>  <Compound>
CC(=O)OCC[N+](C)(C)C

>  <normalized growth>
1.03

$$$$
>  <Compound>
O=C(O)C1(O)C[C@@H](O)C(O)[C@H](O)C1 (stereo partly drawn)

>  <normalized growth>
0.978

$$$$
>  <Compound>
COP(=O)(OC)OC=C(Cl)Cl

>  <normalized growth>
0.997

$$$$
>  <Compound>
CC(CCc1ccccc1)NC(C)C(O)c1ccc(O)cc1 (stereo not drawn)

>  <normalized growth>
1

$$$$
>  <Compound>
CCOC(=O)C(C)(C)Oc1ccc(Cl)cc1

>  <normalized growth>
0.97

$$$$
>  <Compound>
CN1CCC(=C2c3ccccc3CCc3sccc32)CC1

>  <normalized growth>
0.982

$$$$
>  <Compound>
O=C(O)c1c2ccccc2cc2ccccc12

>  <normalized growth>
0.996

$$$$
>  <Compound>
COc1cc(/C=C/C(=O)/C=C(O)/C=C/c2ccc(O)c(OC)c2)ccc1O

>  <normalized growth>
0.131

$$$$
>  <Compound>
CN1CCC(=C2c3ccccc3Sc3ccccc32)CC1

>  <normalized growth>
1.02

$$$$
>  <Compound>
COc1cc2c(cc1OC)C(=O)OC2

>  <normalized growth>
0.991

$$$$
>  <Compound>
CC(=O)N[C@@H](CC(C)C)C(=O)O

>  <normalized growth>
0.985

$$$$
>  <Compound>
C=C1C2CC[C@H]3[C@]4(C)C[C@H](OC5OC(CO)C(OS(=O)(=O)O)C(OS(=O)(=O)O)C5OC(=O)CC(C)C)C[C@@H](C(=O)O)[C@H]4CC[C@]3(C2)[C@H]1O (stereo partly drawn)

>  <normalized growth>
1.01

$$$$
>  <Compound>
COc1ccc2c(c1)O[C@@H]1COc3cc(OC)c(OC)cc3[C@@H]1C2=O

>  <normalized growth>
0.557

$$$$
>  <Compound>
CN(C)CC/C=C1\c2ccccc2Sc2ccc(Cl)cc21

>  <normalized growth>
0.981

$$$$
>  <Compound>
O=C(O)c1cc2ccccc2c(Cc2c(O)c(C(=O)O)cc3ccccc23)c1O

>  <normalized growth>
1

$$$$
>  <Compound>
COc1cc2c(cc1OC)[C@@H]1C(=O)c3ccc(OC)c(CC=C(C)C)c3O[C@@H]1CO2

>  <normalized growth>
1.03

$$$$
>  <Compound>
CCCCCCCCNC(C)C(O)c1ccc(SC(C)C)cc1 (stereo not drawn)

>  <normalized growth>
0.0545

$$$$
>  <Compound>
CN[C@@H](C)[C@@H](O)c1ccccc1

>  <normalized growth>
1.01

$$$$
>  <Compound>
COc1cc2c(cc1OC)[C@@H]1C(=O)c3ccc4oc(C(C)C)cc4c3O[C@@H]1CO2

>  <normalized growth>
0.976

$$$$

Taken from PubChem BioAssay AID1159580.
